I'd be grateful if you could share measured factor by which kcat is higher than that of the Bacillus pumilus enzyme for these entries.
- targetEntity: Selenomonas ruminantium GA192 β-D-xylosidase (SXA), wild type, SEQ ID NO: 2 (Pseudoselenomonas ruminantium)
- assayProcedure: Steady-state kinetics of SXA with X2-X6, improved quenching, HPLC (Example 3)
- conditionNotes: SXA pH 5.3 vs B. pumilus pH 7.15, 25° C

# map each compound to its factor by which kcat is higher than that of the Bacillus pumilus enzyme
1. OC1OC[C@@H](O[C@@H]2OC[C@@H](O[C@@H]3OC[C@@H](O[C@@H]4OC[C@@H](O[C@@H]5OC[C@@H](O)[C@H](O)[C@H]5O)[C@H](O)[C@H]4O)[C@H](O)[C@H]3O)[C@H](O)[C@H]2O)[C@H](O)[C@H]1O (stereo partly drawn)
2. OC1OC[C@@H](O[C@@H]2OC[C@@H](O[C@@H]3OC[C@@H](O[C@@H]4OC[C@@H](O[C@@H]5OC[C@@H](O[C@@H]6OC[C@@H](O)[C@H](O)[C@H]6O)[C@H](O)[C@H]5O)[C@H](O)[C@H]4O)[C@H](O)[C@H]3O)[C@H](O)[C@H]2O)[C@H](O)[C@H]1O (stereo partly drawn)
3. OC1OC[C@@H](O[C@@H]2OC[C@@H](O[C@@H]3OC[C@@H](O[C@@H]4OC[C@@H](O)[C@H](O)[C@H]4O)[C@H](O)[C@H]3O)[C@H](O)[C@H]2O)[C@H](O)[C@H]1O (stereo partly drawn)
4. O=[N+]([O-])c1ccc(O[C@@H]2OC[C@@H](O)[C@H](O)[C@H]2O)cc1 [4NPX, 4-nitrophenyl-β-D-xylopyranoside]
5. OC1OC[C@@H](O[C@@H]2OC[C@@H](O)[C@H](O)[C@H]2O)[C@H](O)[C@H]1O (stereo partly drawn)
6. OC1OC[C@@H](O[C@@H]2OC[C@@H](O[C@@H]3OC[C@@H](O)[C@H](O)[C@H]3O)[C@H](O)[C@H]2O)[C@H](O)[C@H]1O (stereo partly drawn)

Reply text:
1: 20; 2: 27; 3: 31; 4: 4; 5: 10; 6: 32

----------
I'd be grateful if you could share measured pKi for these entries.
- targetEntity: β-D-xylosidase/α-L-arabinofuranosidase (Selenomonas ruminantium)
- assayProcedure: Inhibition of the enzyme by monosaccharides and ethanol (detailed description)
- Assay type: biochemical, Selenomonas ruminantium GA192
- conditionNotes: read-out: Ki
Answers are plain numbers, as −log10 of the molar value.

>  <molSmiles>
O=C[C@H](O)[C@@H](O)[C@H](O)CO

>  <pKi>
2.38

$$$$

// below: pKi requested for another compound
Inquiry: Provide only the value of recorded pKi for `O=C[C@H](O)[C@@H](O)[C@@H](O)CO`
Reply text: 1.70

----------
- targetEntity: UniProt:O52575
- assayProcedure: biochemical
readoutName: Ki (mM)
One number for each entry, in mM.

Inquiry: Give measured Ki for `O=[N+]([O-])c1ccc(O)cc1` (UniProt:O52575).
Reply text: 6.28

----------
- targetEntity: SXA (Selenomonas ruminantium, UniProt O52575)
- assayProcedure: biochemical
- conditionNotes: Kis^D-xylose·4NPX, pH 5.3, 25° C., Eq. 3
readoutName: pKi
Answers are plain numbers, as −log10 of the molar value.

Inquiry: Provide only the value of recorded pKi for O=C[C@H](O)[C@@H](O)[C@H](O)CO [D-xylose]
Reply text: 1.80
